method_description: Apparent permeability of the compound by PAMPA assay
Format: ADME
metric_name: Papp (×10⁻⁶ cm/s)

Take a look at these entries with their results.
* CN1CC=C(c2ccc(OC(F)(F)F)c(Nc3ncc4c(n3)-c3c(c(C(N)=O)nn3C)CC4)c2)CC1 | 46.4
* CN1CCN(c2ccc(OC(F)(F)F)c(Nc3ncc4c(n3)-c3c(c(C(N)=O)nn3CCO)CC4)c2)CC1 [ONVANSERTIB] | 49.6
* CN1CCN(c2ccc(OC(F)(F)F)c(Nc3ncc4c(n3)-c3c(c(C(N)=O)nn3CCN)CC4)c2)CC1 | 5

P. CN1CCC(c2ccc(OC(F)(F)F)c(Nc3ncc4c(n3)-c3c(c(C(N)=O)nn3C)CC4)c2)CC1
Q. CN1CCN(c2ccc(OC(F)(F)F)c(Nc3ncc4c(n3)-c3c(c(C(N)=O)nn3CCCN)CC4)c2)CC1
INPUT: Lab log: flag the item ( P or Q ) with the smaller Papp figure. Bench note: the answer is the label of the chosen record.
OUTPUT: Q

====

assayed_system: Hepatocyte growth factor receptor (Homo sapiens, UniProt P08581)
Sequence (P08581 whole entry): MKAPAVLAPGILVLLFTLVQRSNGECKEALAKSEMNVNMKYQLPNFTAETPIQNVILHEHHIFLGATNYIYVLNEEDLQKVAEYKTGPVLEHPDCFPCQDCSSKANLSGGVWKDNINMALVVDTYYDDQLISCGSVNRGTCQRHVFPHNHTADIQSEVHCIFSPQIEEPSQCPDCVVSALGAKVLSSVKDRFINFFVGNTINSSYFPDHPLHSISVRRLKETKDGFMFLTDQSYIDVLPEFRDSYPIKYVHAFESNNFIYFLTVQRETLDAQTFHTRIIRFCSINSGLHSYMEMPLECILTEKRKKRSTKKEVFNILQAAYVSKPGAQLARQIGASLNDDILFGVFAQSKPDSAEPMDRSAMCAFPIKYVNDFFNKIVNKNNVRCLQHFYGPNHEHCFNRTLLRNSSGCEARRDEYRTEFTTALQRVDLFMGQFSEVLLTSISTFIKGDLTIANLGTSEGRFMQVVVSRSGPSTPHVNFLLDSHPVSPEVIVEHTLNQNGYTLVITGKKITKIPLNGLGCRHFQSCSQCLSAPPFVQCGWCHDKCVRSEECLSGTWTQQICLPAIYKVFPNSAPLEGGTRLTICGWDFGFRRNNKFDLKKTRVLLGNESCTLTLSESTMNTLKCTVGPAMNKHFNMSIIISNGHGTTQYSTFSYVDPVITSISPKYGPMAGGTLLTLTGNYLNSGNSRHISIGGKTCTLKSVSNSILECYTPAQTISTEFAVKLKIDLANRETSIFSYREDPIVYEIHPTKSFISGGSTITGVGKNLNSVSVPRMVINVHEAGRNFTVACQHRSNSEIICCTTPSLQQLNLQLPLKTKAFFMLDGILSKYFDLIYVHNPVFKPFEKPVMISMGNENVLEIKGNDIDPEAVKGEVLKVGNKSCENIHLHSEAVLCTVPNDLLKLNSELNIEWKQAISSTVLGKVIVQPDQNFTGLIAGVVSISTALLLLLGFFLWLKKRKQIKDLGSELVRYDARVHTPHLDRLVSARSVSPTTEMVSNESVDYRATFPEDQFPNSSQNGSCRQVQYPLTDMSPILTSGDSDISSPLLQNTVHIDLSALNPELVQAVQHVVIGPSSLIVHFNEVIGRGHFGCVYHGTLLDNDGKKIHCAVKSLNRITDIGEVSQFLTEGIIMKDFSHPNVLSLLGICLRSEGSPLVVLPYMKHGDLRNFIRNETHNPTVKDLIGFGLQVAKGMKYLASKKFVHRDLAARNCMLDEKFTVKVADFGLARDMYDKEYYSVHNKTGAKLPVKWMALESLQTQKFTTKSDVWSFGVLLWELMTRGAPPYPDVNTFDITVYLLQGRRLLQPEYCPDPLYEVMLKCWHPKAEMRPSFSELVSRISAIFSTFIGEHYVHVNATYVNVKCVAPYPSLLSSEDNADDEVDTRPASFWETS
metric_name: IC50

INPUT: Field: IC50 (Hepatocyte growth factor receptor (Homo sapiens, UniProt P08581)). Entry: CN1CCN(c2ccc(OC(F)(F)F)c(Nc3ncc4c(n3)-c3c(c(C(N)=O)nn3CCO)CC4)c2)CC1
OUTPUT: > 10 µM

====

method_description: Intrinsic clearance in rat hepatocytes at 1 uM
Assay type: ADME, cell-based, Liver, Hepatocyte
metric_name: CLint scaled at 1 µM (mL/min/kg)

- CN1CCN(c2ccc(OC(F)(F)F)c(Nc3ncc4c(n3)-c3c(c(C(N)=O)nn3C)CC4)c2)CC1: 600
- CN1CCN(c2ccc(OC(F)(F)F)c(Nc3ncc4c(n3)-c3c(c(C(N)=O)nn3CCO)CC4)c2)CC1 [ONVANSERTIB]: 165
- CN1CC=C(c2ccc(OC(F)(F)F)c(Nc3ncc4c(n3)-c3c(c(C(N)=O)nn3C)CC4)c2)CC1: 638
- CN1CCC(c2ccc(OC(F)(F)F)c(Nc3ncc4c(n3)-c3c(c(C(N)=O)nn3C)CC4)c2)CC1: 603

====

assayed_system: UniProtKB O14965
Sequence (O14965 whole entry): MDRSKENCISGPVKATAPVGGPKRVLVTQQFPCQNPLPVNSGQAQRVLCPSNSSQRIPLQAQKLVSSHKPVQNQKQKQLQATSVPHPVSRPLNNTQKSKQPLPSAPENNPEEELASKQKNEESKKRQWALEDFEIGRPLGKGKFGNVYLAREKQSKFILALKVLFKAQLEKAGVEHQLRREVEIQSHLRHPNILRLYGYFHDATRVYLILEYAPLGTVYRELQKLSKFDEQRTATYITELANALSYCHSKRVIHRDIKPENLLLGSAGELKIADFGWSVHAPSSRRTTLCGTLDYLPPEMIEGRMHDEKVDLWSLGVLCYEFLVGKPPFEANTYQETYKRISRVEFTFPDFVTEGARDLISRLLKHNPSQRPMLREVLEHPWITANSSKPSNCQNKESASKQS
pIC50: −log10 of the molar value.
metric_name: pIC50

INPUT: Could you share which pIC50 value was measured for CN1CCN(c2ccc(OC(F)(F)F)c(Nc3ncc4c(n3)-c3c(c(C(N)=O)nn3CCO)CC4)c2)CC1 [ONVANSERTIB] ?
OUTPUT: < 5.00

These entries and their values trace back to ChEMBL document CHEMBL1773059.
